- Tested on: RPMI-8226 leukemia
- assayRemarks: NCI-60 one-dose screen, 48 h (100 = growth as untreated, 0 = no growth, -100 = all killed)
- conditionNotes: 10 µM unless noted
The panel holds about 83,000 compounds, 20% with a hit somewhere; the sample as a whole holds those more often.
Assign labels as follows, please: 1.0 for growth below 10%; 0.0 for growth equal to or exceeding 10%.

# example entries with known answers
>>> category("CCSCC1CC(O)(c2ccccc2)C(c2ccccc2)C(c2ccc(F)cc2)O1 (stereo not given)")
1.0
>>> category("COc1cc(OC)c2sc(-c3ccc(-n4cncc4-c4ccc(OC)c(N)c4)cc3)nc2c1")
0.0
>>> category("COc1ccccc1CNCCCN1C(=O)c2ccc3c4c(ccc(c24)C1=O)C(=O)N(CCCCNCCCN)C3=O")
0.0

Input line: Field: below-cutoff. Rule: recorded growth strictly less than 10%. Subject: CCOC(=O)N1C2CCC(C2)N1C(=O)OCC
Output line: 0.0

Input line: Field: below-cutoff. Rule: recorded growth strictly less than 10%. Subject: O=C(N/N=C\c1cc(Br)ccc1O)c1ccncc1
Output line: 0.0

---

- Tested on: HCT-116 colon
- assayRemarks: NCI-60 one-dose screen, 48 h (100 = growth as untreated, 0 = no growth, -100 = all killed)
- conditionNotes: 10 µM unless noted
About 83,000 compounds went through this panel and 20% of them were active in at least one assay; those are over-represented in the sample as a whole. Active and inactive are the calls of the source. How the source made its calls: active means growth percent below 10; inactive means the rest.
measuredProperty: growth

// solved cases for growth follow
>>> observedvalue("CCOC(=O)C1C(=O)C=C(c2cc(OC)c(OC)c(OC)c2)CC1c1sc(N(C)Cc2ccccc2)nc1Cl (stereo not given)")
"72.6% (inactive)"
>>> observedvalue("COc1cc(CN2CCC(N3CCCC3=O)c3ccccc32)cc(OC)c1OC (stereo not given)")
"68.8% (inactive)"
>>> observedvalue("C=CCCCCOc1cccc(/C=C2\\N=C3SCCCN3C2=O)c1")
"86.2% (inactive)"

Input line: Record Cc1ccc(C)c(NC(=O)c2sc3c(=O)[nH]cnc3c2C)c1 : what is its growth with HCT-116 colon?
Output line: 68.3% (inactive)

Input line: Record COc1ccc(NC(=O)Cn2c(=O)sc3c(-c4ccc(Cl)cc4)cc(-c4ccc(Cl)cc4)nc32)cc1 : what is its growth with HCT-116 colon?
Output line: 88.1% (inactive)

Input line: Record Cc1cc([N+](=O)[O-])c(C)cc1N : what is its growth with HCT-116 colon?
Output line: 109% (inactive)

Input line: Record C[C@@H]1N=C(c2ccc3ccccc3c2)Nc2nc3ccccn3c2C1=O : what is its growth with HCT-116 colon?
Output line: 18.3% (inactive)

Input line: Record O=C(Nc1cccc(N=Cc2c(O)ccc3ccccc23)c1)c1ccccc1 : what is its growth with HCT-116 colon?
Output line: 93.9% (inactive)

Input line: Record COc1cc(CN(CCC(O)N2CCCC2=O)Cc2ccc3c(c2)OCO3)cc(OC)c1OC (stereo not given) : what is its growth with HCT-116 colon?
Output line: 92.4% (inactive)

Input line: Record CNC(=O)OC1C(O[C@H]2C[C@H]3[C@@H]4CC=C5C[C@@H](O)CC[C@]5(C)[C@H]4CC[C@]3(C)[C@H]2[C@H](C)C(=O)CCC(C)C)OCC(O)C1OC1OCC(O)C(O)C1OC(=O)c1ccc(OC)cc1 (stereo not given in full) : what is its growth with HCT-116 colon?
Output line: 8.61% (active)

Input line: Record C=C1C(=O)O[C@H]2[C@H]1CC/C(COC(=O)NCc1cccc(OC)c1)=C\CC[C@@]1(C)O[C@@H]21 : what is its growth with HCT-116 colon?
Output line: -70.9% (active)

Input line: Record COc1cccc(-c2nc3sccn3c2-c2ccnc(NCCN3CCCN(C)S3(=O)=O)n2)c1 : what is its growth with HCT-116 colon?
Output line: 78.1% (inactive)

Input line: Record CCOC(=O)c1cnc(SCC)nc1SC#N : what is its growth with HCT-116 colon?
Output line: 64.2% (inactive)

Input line: Record COc1cc(C2CC(c3ccccc3)=NN2C=O)ccc1Oc1ccnc2cc(Cl)ccc12 (stereo not given) : what is its growth with HCT-116 colon?
Output line: 54.7% (inactive)

Input line: Record FC(F)(F)c1cc(-c2nnc3n2N=C(Cl)CS3)cc(C(F)(F)F)c1 : what is its growth with HCT-116 colon?
Output line: 90.5% (inactive)

Input line: Record ClC1(Cl)C2CCCCCCC21 (stereo not given) : what is its growth with HCT-116 colon?
Output line: 110% (inactive)

Input line: Record CCCCCCCCCCCCCCCCCC(=O)[O][Sn]([CH2]CCC)([CH2]CCC)[CH2]CCC : what is its growth with HCT-116 colon?
Output line: -96.2% (active)

Input line: Record CCC(=O)OCc1ccc(OC)cc1 : what is its growth with HCT-116 colon?
Output line: 98.7% (inactive)

Input line: Record Oc1c(C(Nc2ccccc2Br)c2ccccc2)ccc2cccnc12 (stereo not given) : what is its growth with HCT-116 colon?
Output line: 20% (inactive)

Input line: Record N/N=C(\C(=N\N)c1ccccc1)c1ccccc1 : what is its growth with HCT-116 colon?
Output line: 101% (inactive)

Input line: Record Cc1c(C(=O)Nc2ccccc2F)sc2c(=O)[nH]cnc12 : what is its growth with HCT-116 colon?
Output line: 88.6% (inactive)

Input line: Record NC(N)=NC1CCCCC1 : what is its growth with HCT-116 colon?
Output line: 98.6% (inactive)

Input line: Record COc1cc(NC(=O)CSc2nc3ccc(Cl)cc3c(=O)n2-c2ccccc2)cc(OC)c1OC : what is its growth with HCT-116 colon?
Output line: 92.5% (inactive)

---

- Tested on: NCI-H23 lung
- assayRemarks: NCI-60 one-dose screen, 48 h (100 = growth as untreated, 0 = no growth, -100 = all killed)
- conditionNotes: 10 µM unless noted
The panel holds about 83,000 compounds, 20% with a hit somewhere; the sample as a whole holds those more often. Activity calls are given as the source filed them. Rule for the calls: active = growth percent below 10; inactive = the rest.
measuredProperty: growth

// solved cases for growth follow
>>> observedvalue("Cc1cc(-c2ccccc2)on1")
"106% (inactive)"
>>> observedvalue("COc1cc(C2CC(c3ccc(C)cc3)=NN2C=O)ccc1Oc1nc2c(c(=O)n(C)c(=O)n2C)n1C (stereo unspecified)")
"85.3% (inactive)"
>>> observedvalue("NNc1ccc(S(N)(=O)=O)cc1")
"90.7% (inactive)"
>>> observedvalue("CC(C)(C)[Si](C)(C)OC1[C@@H](CNC(N)=O)O[C@@H](n2cnc3c(NC(=O)Nc4ccccc4)ncnc32)[C@H]1O[Si](C)(C)C(C)(C)C (stereo partly specified)")
"62.4% (inactive)"
>>> observedvalue("CCS(=O)(=O)Nc1cccc(Nc2c3cccc(C)c3nc3c(C)cccc23)c1OC")
"11.1% (inactive)"

Input line: Which growth value is on record for Cc1ccc(OC2=C(C#N)C(=N)N3C(=NN2)Sc2c(C)ccc(C)c23)cc1 ?
Output line: 85.3% (inactive)

Input line: Which growth value is on record for CC(C)CC1NC(=O)C(CC(C)C)N(CO)C1=O (stereo unspecified) ?
Output line: 104% (inactive)

Input line: Which growth value is on record for CC(NC(=O)c1ccccc1)C(=O)Nc1ccccc1 (stereo unspecified) ?
Output line: 105% (inactive)

Input line: Which growth value is on record for COc1ccc2c(c1)N(Cc1ccc(Cl)cc1)CCC2N1CCCC1=O (stereo unspecified) ?
Output line: 52.7% (inactive)

Input line: Which growth value is on record for O=C(O)C(CCc1ccccc1)NCc1ccccc1 (stereo unspecified) ?
Output line: 94.9% (inactive)

Input line: Which growth value is on record for C=C1C(=O)O[C@H]2[C@H]1CC/C(COC(=O)NCc1c[nH]c3ccc(OC)cc13)=C\CC[C@@]1(C)O[C@@H]21 ?
Output line: 51.6% (inactive)

Input line: Which growth value is on record for COc1cc(CN(CCC(O)N2CCCC2=O)Cc2ccc3c(c2)OCO3)cc(OC)c1OC (stereo unspecified) ?
Output line: 108% (inactive)

Input line: Which growth value is on record for C=C1C(=O)O[C@H]2[C@H]1CC/C(COC(=O)NCc1ccc(Cn3c(=O)sn(CCCl)c3=O)cc1)=C\CC[C@@]1(C)O[C@@H]21 ?
Output line: 103% (inactive)

Input line: Which growth value is on record for Cc1ccc(NC(=O)c2cc(NCc3cc(O)ccc3O)ccc2O)cc1 ?
Output line: 92.9% (inactive)

Input line: Which growth value is on record for Cc1ccc2c(C)c3c(ccc4ccccc43)c[n+]2c1 ?
Output line: 53.8% (inactive)

Input line: Which growth value is on record for COc1ccc(C(=O)O)cc1.[Ag] ?
Output line: 103% (inactive)

Input line: Which growth value is on record for Oc1ccc(-c2nnc3c4[nH]ccc4ncn23)cc1 ?
Output line: 91.5% (inactive)

Input line: Which growth value is on record for O=c1c2cc(Br)cc(Br)c2nc(-c2ccc(Cl)cc2)n1/N=C/c1cccc(F)c1 ?
Output line: 53.6% (inactive)

Input line: Which growth value is on record for CCOC(=O)C1=C(C(=O)OCC)N(c2cc(OC)c(OC)c(OC)c2)C(N)=C(C#N)C1c1cc(=O)[nH]c2ccccc12 (stereo unspecified) ?
Output line: 104% (inactive)

Input line: Which growth value is on record for O=C(NCCN1CCCCC1)n1cc(-c2ccncc2)c(-c2ccc(Cl)c(O)c2)n1 ?
Output line: 83.4% (inactive)

Input line: Which growth value is on record for CCN(CC)CCNC(=O)C(F)(F)C(F)(F)C(F)(F)F ?
Output line: 114% (inactive)
